Sourced from paper PMC12064818

- SYSTEM_NAME: FLuc-C-HiBiT (Photinus pyralis, UniProt P08659)
- Construct: firefly luciferase with C-terminal HiBiT tag, E. coli expressed
- Sequence (P08659 whole entry, looked up): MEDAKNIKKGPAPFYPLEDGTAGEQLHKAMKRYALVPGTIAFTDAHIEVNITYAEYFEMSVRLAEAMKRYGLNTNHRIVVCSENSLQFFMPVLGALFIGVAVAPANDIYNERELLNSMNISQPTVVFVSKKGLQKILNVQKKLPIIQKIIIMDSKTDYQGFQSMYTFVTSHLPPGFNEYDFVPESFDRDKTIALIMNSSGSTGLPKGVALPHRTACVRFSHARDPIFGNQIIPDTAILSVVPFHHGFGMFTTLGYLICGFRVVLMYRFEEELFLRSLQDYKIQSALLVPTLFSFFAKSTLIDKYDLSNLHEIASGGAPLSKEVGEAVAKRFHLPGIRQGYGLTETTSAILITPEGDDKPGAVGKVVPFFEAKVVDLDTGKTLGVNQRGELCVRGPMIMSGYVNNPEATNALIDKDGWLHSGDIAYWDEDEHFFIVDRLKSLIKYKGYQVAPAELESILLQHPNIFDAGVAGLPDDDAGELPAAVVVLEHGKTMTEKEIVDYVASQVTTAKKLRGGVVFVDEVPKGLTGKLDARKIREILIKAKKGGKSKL
- MEASUREMENT_NOTES: biochemical
- PROTOCOL_CONDITIONS: enzyme activity, 10 uM ATP; read-out: IC50 or SDR50 (mM) / FLuc E
VALUE_KIND: IC50

For `COc1ccc(-c2cc3c(=O)n(CCNC(=O)c4c(F)cccc4F)ccn3n2)cc1` , what is its reported IC50?
0.00495 mM

Entry to check: `O=C(Nc1n[nH]c2cc(-c3ccccc3)ccc12)C1CC1`
0.0124 mM

Entry to check: CCN1c2cc(C(=O)Nc3ccc4c(c3)OCCO4)ccc2C(=O)N2CCCCCC21 (centres unmarked)
0.00989 mM

Entry to check: COCCNC(=O)C1CCN(C(=O)c2nnn3c2COC(c2ccc(C)cc2)C3)CC1 (centres unmarked)
0.00495 mM

Entry to check: `Cc1ccc(-n2ncc3c(NC4CCCC4)ncnc32)cc1`
0.000624 mM

Entry to check: `CN1C[C@@H](N[S+](=O)([O-])c2ccc(C#N)cc2)C[C@H]1c1nc(-c2ccc(Cl)cc2)no1`
0.0111 mM

Entry to check: `Cc1cc2nc(-c3cccc(NC(=O)COc4ccc(C(C)C)cc4)c3)oc2cc1C`
0.00989 mM

Entry to check: `Clc1cccc(-c2nc3ccccc3s2)c1`
0.00881 mM

Entry to check: `COc1cccc(-c2cccc(COc3cnc4c(ccn4CC(=O)O)c3)c2)c1`
0.0161 mM

Entry to check: `Cc1ccc(-n2ncc3c(N(C)Cc4ccccc4)ncnc32)cc1`
0.00157 mM

Entry to check: `Cc1ccc2sc(-c3ccc(N)cc3)nc2c1`
0.000279 mM

Entry to check: `CSCC(=O)N[C@H]1CCN2C(=O)c3cc(-c4ccc(SC)cc4)ccc3NC(=O)[C@H]12`
0.0111 mM

Entry to check: `c1ccc(COc2ccccc2-c2nc3ccccc3s2)cc1`
0.0124 mM

Entry to check: `CCCNC(=O)c1cccc2c1CCN2C(=O)Nc1cccc(C)c1`
0.00248 mM

Entry to check: COc1ccc(C(=O)NC2CCCN(c3cc(-c4ccc(Cl)cc4)n[nH]3)C2)cc1OC (centres unmarked)
0.00624 mM

Entry to check: OC1(CN2CCCN(c3nc4ccccc4s3)CC2)CNCCOC1 (centres unmarked)
> 0.03 mM

Entry to check: `COc1ccc(-c2nc(C)c(CCNC(=O)c3c(F)cccc3F)s2)cc1`
> 0.03 mM

Entry to check: `Fc1ccc(-n2ncc3c(N4CCC(Cc5ccccc5)CC4)ncnc32)cc1`
> 0.03 mM

Entry to check: `COc1cccc(CC(=O)NCCn2ccn3nc(-c4ccc(C)cc4C)cc3c2=O)c1`
0.00881 mM

Entry to check: `COc1ccc(/C=C/c2ccc3c(c2)C(=O)N2CC[C@H](NC(=O)CCC(=O)O)[C@H]2C(=O)N3)cc1`
0.0124 mM

Entry to check: `CN1CCNc2cc(-c3ccc([S+](C)(=O)[O-])cc3)ncc2C1`
> 0.03 mM

Entry to check: `COc1cccc(-n2cnc3c(N/N=C/c4ccncc4)ncnc32)c1`
0.0176 mM

Entry to check: `c1ccc(Nc2cc3c(cn2)CN(Cc2ccsc2)CCN3)cc1`
0.0143 mM

Entry to check: `CCOc1ccc2nc(N3CCN(C(=O)c4ccco4)CC3)sc2c1`
0.0124 mM

Entry to check: CCN(CC)C(=O)N1CCOC(c2ccc3cc(OC)ccc3c2)C1 (centres unmarked)
0.00556 mM

Entry to check: `COCCN1CCNc2cc(-c3cccc(OC)c3)ncc2C1`
0.0202 mM

Entry to check: `CCOc1ccc(C(=O)Nc2cc(-c3nc4ccccc4s3)ccc2OC)cc1`
> 0.03 mM

Entry to check: `Fc1ccc(-c2cn3cc(Cc4ccccc4)sc3n2)cc1`
0.000279 mM

Entry to check: `Cc1nnc(CN(C)c2ccc(-c3nc(-c4cccc(Cl)c4)no3)cn2)o1`
0.00495 mM
